Molecular target: T1, human PVR (SPR of the humanized variants, Example 5) (human, UniProt P15151 21-343)
T1 sequence: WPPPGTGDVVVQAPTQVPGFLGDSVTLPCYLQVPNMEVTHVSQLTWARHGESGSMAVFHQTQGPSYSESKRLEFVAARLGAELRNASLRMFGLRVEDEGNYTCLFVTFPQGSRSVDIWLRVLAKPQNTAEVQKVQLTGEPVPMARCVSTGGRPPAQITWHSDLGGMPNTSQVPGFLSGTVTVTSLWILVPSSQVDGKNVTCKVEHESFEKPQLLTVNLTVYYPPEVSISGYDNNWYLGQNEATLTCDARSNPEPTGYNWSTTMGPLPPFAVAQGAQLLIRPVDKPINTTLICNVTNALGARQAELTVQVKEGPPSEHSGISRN
Assay: SPR
pKd: −log10 of the molar value.
# label = rule met if pKd >= 8 else rule not met

binder	assigned-category
humanized 5B9 variant VH3/VK1 (antibody, V domains shown) VH: QVQLVQSGAEVKKPGASVKVSCKATGYTFSNYWIEWIKQAPGQGLEWIGEIFPGSGRINFNEKFKGRVTFTADTSISTTYMELSRLRSDDTAVYYCARTKIYGNSFDYWGQGTLVTVSS VL: DIMMTQSPSFLSASVGDRVTITCKASQDVGTAVVWYQQKPGKAPKLLIYWASSRHEGVPDRFTGSGSGTDFTLTISSLQSEDFADYFCQQYSRYPLTFGQGTKLEIK	rule met

Query: Exam item: decide whether the reported pKd for IgG4(S241P)_N56E_VH2/Vκ4 (antibody, V domains shown, humanized 5B9 variant with Vk4; also called VH2/Vk4) VH: QVQLVQSGAEVKKPGASVKISCKATGYTFSNYWIEWIKQAPGQGLEWIGEIFPGSGRINFNEKFKGRATFTADTSIDTTYMELSRLRSDDTAVYYCARTKIYGNSFDYWGQGTLVTVSS VL: DIQMTQSPSSLSASVGDRVTITCRASQDVGTAVAWYQQKPGKAPKSLIYWASSRHEGVPSRFSGSGSGTDFTLTISSLQPEDFATYFCQQYSRYPLTFGQGTKLEIK is at least 8.
Result: rule not met

Query: Tell me whether pKd is at least 8 here: humanized 5B9 variant VH2/VK2 (antibody, V domains shown) VH: QVQLVQSGAEVKKPGASVKISCKATGYTFSNYWIEWIKQAPGQGLEWIGEIFPGSGRINFNEKFKGRATFTADTSIDTTYMELSRLRSDDTAVYYCARTKIYGNSFDYWGQGTLVTVSS VL: DIQMTQSPSSLSASVGDRVTITCKASQDVGTAVVWYQQKPGKAPKLLIYWASSRHEGVPDRFSGSGSGTDFTLTISSLQPEDFADYFCQQYSRYPLTFGQGTKLEIK
Result: rule met

Query: Quick check: does humanized 5B9 variant VH3/VK2 (antibody, V domains shown) VH: QVQLVQSGAEVKKPGASVKVSCKATGYTFSNYWIEWIKQAPGQGLEWIGEIFPGSGRINFNEKFKGRVTFTADTSISTTYMELSRLRSDDTAVYYCARTKIYGNSFDYWGQGTLVTVSS VL: DIQMTQSPSSLSASVGDRVTITCKASQDVGTAVVWYQQKPGKAPKLLIYWASSRHEGVPDRFSGSGSGTDFTLTISSLQPEDFADYFCQQYSRYPLTFGQGTKLEIK have pKd greater than or equal to 8?
Result: rule met

Query: Dear colleague, could you confirm whether humanized 5B9 variant VH1/VK1 (antibody, V domains shown) VH: QVQLVQSGAELKKPGASVKISCKATGYTFSNYWIEWIKQAPGQGLEWIGEIFPGSGRINFNEKFKGRATFTADTSIDTTYMQLSSLTSDDSAVYYCARTKIYGNSFDYWGQGTTVTVSS VL: DIMMTQSPSFLSASVGDRVTITCKASQDVGTAVVWYQQKPGKAPKLLIYWASSRHEGVPDRFTGSGSGTDFTLTISSLQSEDFADYFCQQYSRYPLTFGQGTKLEIK has pKd at or above 8?
Result: rule met
